FYI, the data here is from patent US20090118372A1.

Target: UniProt P48445
Sequence (P48445 1-690): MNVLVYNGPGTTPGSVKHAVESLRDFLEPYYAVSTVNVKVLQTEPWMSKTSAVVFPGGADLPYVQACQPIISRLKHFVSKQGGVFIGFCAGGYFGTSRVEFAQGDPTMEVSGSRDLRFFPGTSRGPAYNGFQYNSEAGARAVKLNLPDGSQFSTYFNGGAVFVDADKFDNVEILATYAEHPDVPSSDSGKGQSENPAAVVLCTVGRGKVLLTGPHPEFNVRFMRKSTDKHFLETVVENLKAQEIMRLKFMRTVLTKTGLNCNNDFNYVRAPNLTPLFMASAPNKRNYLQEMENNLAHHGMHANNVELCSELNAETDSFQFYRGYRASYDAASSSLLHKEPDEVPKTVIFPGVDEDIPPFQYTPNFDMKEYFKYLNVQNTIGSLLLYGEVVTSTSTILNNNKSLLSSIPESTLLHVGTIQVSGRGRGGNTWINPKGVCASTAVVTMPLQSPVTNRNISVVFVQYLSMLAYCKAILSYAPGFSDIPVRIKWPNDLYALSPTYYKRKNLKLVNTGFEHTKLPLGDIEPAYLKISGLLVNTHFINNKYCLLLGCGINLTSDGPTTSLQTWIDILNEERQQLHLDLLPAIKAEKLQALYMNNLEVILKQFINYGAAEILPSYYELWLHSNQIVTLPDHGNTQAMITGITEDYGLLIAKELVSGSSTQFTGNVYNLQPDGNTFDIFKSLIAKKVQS
pIC50: −log10 of the molar value.
Reported property: pIC50

Query block: Any idea what its pIC50 is? The compound is "C=CCC(Cc1cc(OC)cc(OC)c1)(C(=O)O)C(=O)O"
Result block: < 4.30
